Test system: ATP;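 note: ATP exposure 15 min at 22 °C before imaging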
procedure_text: switch fluorescence ratio, 500 uM ATP over buffer (Cy3 cluster intensity, sum of 5 cycles each) (fold (ratio)); higher = stronger signal-on switching upon ATP binding; sequences stand for … in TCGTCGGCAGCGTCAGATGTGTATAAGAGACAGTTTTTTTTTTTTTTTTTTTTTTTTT…TC
run_conditions: aptamer strand: ATP DNA aptamer (quencher-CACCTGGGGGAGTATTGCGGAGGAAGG + anchor), 100 nM annealed; ATP concentration: 500 uM
property_measured: switch fluorescence ratio
Give the figure by itself; no unit, no explanation.

# query: switch fluorescence ratio of entry `ATGAGGTTTT`
0.991

# query: switch fluorescence ratio of entry `AGTAGGGTTA`
0.989

# query: switch fluorescence ratio of entry `AGGTAATAGC`
1.05

# query: switch fluorescence ratio of entry `ATGAGGTTTG`
1.01

# query: switch fluorescence ratio of entry `AATCTTGATG`
0.981

# query: switch fluorescence ratio of entry `CTGGCAGGAA`
1.01

# query: switch fluorescence ratio of entry `AGGGGGCAGC`
1.01

# query: switch fluorescence ratio of entry `GGTACTTAGG`
1.06

# query: switch fluorescence ratio of entry `ATCACAACTG`
0.997

# query: switch fluorescence ratio of entry `GTCACACTT`
1.01

# query: switch fluorescence ratio of entry `TGGAAAGCCT`
1.05

# query: switch fluorescence ratio of entry `TTTTTCCATA`
1

# query: switch fluorescence ratio of entry `TCTAGTGTGC`
0.977

# query: switch fluorescence ratio of entry `GAAATTAACT`
1.01

# query: switch fluorescence ratio of entry `TTGGGGGCAC`
1.02

# query: switch fluorescence ratio of entry `TTTGCTTTCC`
1.2

# query: switch fluorescence ratio of entry `GGCGTCAAGG`
0.996

# query: switch fluorescence ratio of entry `GCCATCGAAT`
1

# query: switch fluorescence ratio of entry `TCGGTCTAAC`
1

# query: switch fluorescence ratio of entry `TAGATGCCAG`
1.07

# query: switch fluorescence ratio of entry `ACTGGGCGGA`
0.996

# query: switch fluorescence ratio of entry `TATGCACTGA`
1.06

# query: switch fluorescence ratio of entry `TATTTATATT`
1.06
